- Tested on: P388 leukemia ip, CD2F1 mice, survival T/C
- ASSAY_PROCEDURE: NCI In Vivo Anticancer Drug Screen. Data for tumor model P388 Leukemia (intraperitoneal) in CD2F1 (CDF1) mice
- EXPERIMENTAL_CONTEXT: endpoint: median survival time; dose: 400.0 mg/kg/injection; schedule: Q01DX009 (ip); vehicle: saline with Tween-80; higher = longer survival
Inconclusive results and toxic doses are left out.
ATTRIBUTE_MEASURED: T/C

Please report the recorded T/C for CCCCC(SC(CC)(C(N)=O)c1ccccc1)C(=O)O (centres undefined) .
97 % of control

And what about the compound O=C1c2ccccc2C(=O)N1CNc1cccc(NCN2C(=O)c3ccccc3C2=O)c1 ?
100 % of control

Another compound to look at: Nc1nc(N)c2[nH]cnc2n1
90 % of control

Now the compound O=C(OCC1OC(n2cnc3c(=S)nc[nH]c32)C(OC(=O)c2ccc(Cl)cc2)C1OC(=O)c1ccc(Cl)cc1)c1ccc(Cl)cc1 (centres undefined)
90 % of control

What would you report for COc1ccc(Cl)cc1C(c1cc(Cl)ccc1OC)C(Cl)(Cl)Cl ?
90 % of control

Follow-up entry: CCOC(=O)NC(C)(C)CN(C(=O)OCC)c1ccccc1
116 % of control

For O=C(NCCCBr)Nc1cccc2c1CCCC2 then?
100 % of control

Please answer likewise for NC(CCCCNC1CCCCC1)C(=O)O (centres undefined)
100 % of control

Would you kindly repeat that for C[Si](C)(CCl)N[Si](C)(C)CCl ?
122 % of control

Next: CCC(=O)OC(C)COc1ccc(C(C)(C)C)cc1 (centres undefined)
117 % of control

What would you report for CC(C)(C)c1ccc(OS(=O)(=O)c2cccc([N+](=O)[O-])c2)cc1 ?
100 % of control

How about this compound: C=CC1(C)CC(O)C2C(C)C(=O)OC2C1C(=C)C (centres undefined)
100 % of control

Queued: O=C(NC(CSSCC(NC(=O)c1ccccc1)C(=O)O)C(=O)O)c1ccccc1 (centres undefined)
93 % of control

Next record, please: c1cc(Nc2ccc(Nc3ccc(CN4CCCCC4)cc3)cc2)ccc1CN1CCCCC1
114 % of control
